# GI50 measurements, system: NCI-H460 lung

| molecule | GI50 |
| --- | --- |
| Clc1ccc(-c2nc3c(-c4ccc(Cl)cc4)nc(-c4ccccc4)cn3c2-c2ccc(Cl)cc2)cc1 | > 50000 nM |
| CCCNc1nc(N(C)O)nc(N(C)O)n1 | 563 nM |
| COC1=C(OC)C(=O)C(/C=C(\C)C(=O)O)=C(C)C1=O | > 100000 nM |
| COc1cccc(Nc2nc(NNC(=O)Cc3ccccc3)nc(NNC(=O)c3ccncc3)n2)c1 | > 100000 nM |
| CN(C)CC(C(=O)c1ccccc1)c1ccccc1 (centres undefined) | 3930 nM |
| CCOP(=O)(CCP(=O)(OCC)OCC)OCC.C[CH2][Sn]([Cl])([Cl])[CH2]C | > 81800 nM |
| CCCc1cc(=O)oc2c(C(=O)CC(C)C)c(O)c(CC=C(C)C)c(O)c12 | 8030 nM |
| O=C1C2=C(C(=O)c3c(O)ccc(O)c31)N(c1ccc(N3CCOCC3)nc1)Cc1ccccc1O2 | 1310 nM |
| O=C(N[C@H](c1ccc(Cl)c(Cl)c1)C1CNC1)c1ccc2cnccc2c1 | 2680 nM |
| Cn1cc(-c2csc(-c3c[nH]c4ncccc34)n2)c2cc(Br)cnc21 | 2980 nM |
| Cc1cccc(CN(C)c2ccc(CO)c(Cl)c2)c1 | 2040 nM |
| O=C(Oc1cccnc1)c1ccccc1Nc1ccnc(C(F)(F)F)c1 | 342 nM |
| Cc1ccc(-n2c3c(c4c(CN5CCCCC5)c(O)ccc42)CCc2ccccc2C3=O)cc1 | > 100000 nM |
| O=C1NC(=NCC(CO)c2ccccc2)S/C1=C\c1ccc2ncccc2c1 (centres undefined) | > 16100 nM |
